Recorded Emax, one value per entry.
Molecular target: 5-hydroxytryptamine receptor 1A (Homo sapiens)
Sequence (whole entry): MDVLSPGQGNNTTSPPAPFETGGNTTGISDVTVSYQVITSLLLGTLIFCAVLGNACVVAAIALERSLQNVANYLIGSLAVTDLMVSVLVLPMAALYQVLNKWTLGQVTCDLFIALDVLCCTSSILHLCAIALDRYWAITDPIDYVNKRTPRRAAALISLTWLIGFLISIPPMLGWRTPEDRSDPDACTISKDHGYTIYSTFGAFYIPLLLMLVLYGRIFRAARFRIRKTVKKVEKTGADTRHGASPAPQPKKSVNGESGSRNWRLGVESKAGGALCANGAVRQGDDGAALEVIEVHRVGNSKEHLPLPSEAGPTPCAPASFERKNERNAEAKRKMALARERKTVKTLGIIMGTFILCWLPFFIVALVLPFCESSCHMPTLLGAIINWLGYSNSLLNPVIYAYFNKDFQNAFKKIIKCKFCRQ
Test: Agonist activity at human cloned 5HT1A receptor expressed in human HeLa cells assessed as stimulation of [35S]GTPgammaS binding after 20 mins by liquid scintillation counting relative to maximal 5HT response
Type: functional, cell-based
Supply the numeric figure in %, leaving out any unit text.

Known Emax results, listed for orientation:
{"compound": "COc1ccccc1N1CCN(C[C@H]2CO[C@@](CN3C(=O)CC4(CCCC4)CC3=O)(c3ccccc3)O2)CC1 (relative stereo)", "output-unit": "%", "result-value": 49}
{"compound": "COc1ccccc1N1CCN(C[C@@H]2CO[C@](CN3CCCC3=O)(c3ccccc3)O2)CC1 (relative stereo)", "output-unit": "%", "result-value": 34}
{"compound": "COc1ccccc1N1CCN(C[C@H]2CO[C@@](CN3C(=O)CCC3=O)(c3ccccc3)O2)CC1 (relative stereo)", "output-unit": "%", "result-value": 45}
{"compound": "COc1ccccc1N1CCN(CC2OCC(c3ccccc3)(c3ccccc3)O2)CC1 (centres undefined)", "output-unit": "%", "result-value": 16}
{"compound": "COc1ccccc1N1CCN(CCN2C(=O)CC3(CCCC3)CC2=O)CC1", "output-unit": "%", "result-value": 100}
{"compound": "COc1ccccc1N1CCN(C[C@H]2CO[C@@](CN3C(=O)CCCC3=O)(c3ccccc3)O2)CC1 (relative stereo)", "output-unit": "%", "result-value": 34}
{"compound": "COc1ccccc1N1CCN(C[C@@H]2CO[C@@](CN3CCCCCC3=O)(c3ccccc3)O2)CC1 (relative stereo)", "output-unit": "%", "result-value": 39}
{"compound": "CCCN(CCC)C1CCc2cccc(O)c2C1 (centres undefined)", "output-unit": "%", "result-value": 26}

Now turn to the next compound.
// field: Emax; key: COc1ccccc1N1CCN(C[C@@H]2CO[C@@](CN3C(=O)CC4(CCCC4)CC3=O)(c3ccccc3)O2)CC1 (relative stereo) ; value = 60
